- Tested on: MDA-MB-231 breast
- Procedure text: NCI-60 one-dose screen, 48 h (100 = growth as untreated, 0 = no growth, -100 = all killed)
- Reported conditions: 10 µM unless noted
The panel holds about 83,000 compounds, 20% with a hit somewhere; the sample as a whole holds those more often.

{"Substance smiles": "O=C(CCCCCCN1CC(=O)N2[C@@H](c3ccc(Cl)cc3)c3[nH]c4ccccc4c3C[C@H]2C1=O)NO", "growth / %": 50.9}
{"Substance smiles": "Cc1ccc(/C=C/C(=O)c2ccc(NC(=O)CSc3nc4c([nH]3)c(=O)n(C)c(=O)n4C)cc2)c(C)c1", "growth / %": 5.32}
{"Substance smiles": "O=c1ccc2nc(C(F)(F)F)nn(-c3ccccc3)c-2c1", "growth / %": 61}
{"Substance smiles": "Cc1cscc(C)c1=S", "growth / %": 97.8}
{"Substance smiles": "COC(=O)c1c2c(c(C)[n+]([O-])c1C)C(=O)C=CC2=O", "growth / %": 0.888}
